Assay: Cytotoxicity against human Hs 578T cells
Format: cell-based
Each record here notes measured LC50.

Solved entries:
**Q:** Using the record for CC(C)C(/C=C/c1ccccc1)n1cc(/C=C/C(=O)NO)nn1 (centres undefined) , report its LC50.
**A:** > 100 µM

**Q:** Recorded LC50 for O=C(/C=C/c1ccc(CN(CCO)CCc2c[nH]c3ccccc23)cc1)NO , please?
**A:** > 100 µM

**Q:** I have this compound here, CC(/C=C/c1ccccc1)n1cc(/C=C/C(=O)NO)nn1 (centres undefined) , and I need its recorded LC50.
**A:** > 100 µM

Then there is this compound:
**Q:** So what does the record say about LC50 for O=C(/C=C/c1cn(C(/C=C/c2ccccc2)Cc2ccccc2)nn1)NO (centres undefined) ?
**A:** 74.6 µM

* * *

System: KM12
Experiment: Cytotoxicity against human KM12 cells
Format: cell-based
propertyName: LC50 (µM)
Could you give me the number in µM? Just the number is fine.

**Q:** Given the entry O=C(/C=C/c1cn(C(/C=C/c2ccccc2)Cc2ccccc2)nn1)NO (centres undefined) , report its measured LC50.
**A:** 34.2

**Q:** Given the entry CC(/C=C/c1ccccc1)n1cc(/C=C/C(=O)NO)nn1 (centres undefined) , report its measured LC50.
**A:** 6.82

**Q:** Reported LC50 for O=C(/C=C/c1ccc(CN(CCO)CCc2c[nH]c3ccccc23)cc1)NO : what is it?
**A:** 29.9

**Q:** Would you kindly share the measured LC50 for CC(C)C(/C=C/c1ccccc1)n1cc(/C=C/C(=O)NO)nn1 (centres undefined) ?
**A:** 9.53

* * *

Tested on: SK-MEL-5
Assay: Cytotoxicity against human SK-MEL-5 cells
Type: cell-based
propertyName: LC50 (µM)
Give your result in µM as a bare value.

**Q:** Checklist item: LC50 tested on SK-MEL-5, entry O=C(/C=C/c1cn(C(/C=C/c2ccccc2)Cc2ccccc2)nn1)NO (centres undefined) , value?
**A:** 5.3

---
**Q:** Identify the measured LC50 of CC(/C=C/c1ccccc1)n1cc(/C=C/C(=O)NO)nn1 (centres undefined) for SK-MEL-5.
**A:** 4.52

**Q:** Under SK-MEL-5: LC50 value of CC(C)C(/C=C/c1ccccc1)n1cc(/C=C/C(=O)NO)nn1 (centres undefined) ?
**A:** 5.17

**Q:** Give LC50 (SK-MEL-5) of the following compound: O=C(/C=C/c1ccc(CN(CCO)CCc2c[nH]c3ccccc23)cc1)NO
**A:** 4.02

* * *

Parameter LC50: see the listing below.
Test system: OVCAR-3
Test: Cytotoxicity against human OVCAR3 cells
Type: cell-based
Output spec: scalar in µM, unitless text.

Worked set:
**Q:** What does the record list as LC50 for O=C(/C=C/c1ccc(CN(CCO)CCc2c[nH]c3ccccc23)cc1)NO [DACINOSTAT] ?
**A:** 51

**Q:** Look at this compound and give its reported LC50. O=C(/C=C/c1cn(C(/C=C/c2ccccc2)Cc2ccccc2)nn1)NO (centres undefined)
**A:** 8.7

**Q:** # lookup: LC50 of CC(/C=C/c1ccccc1)n1cc(/C=C/C(=O)NO)nn1 (centres undefined)
**A:** 7.33

Turning to the following compound.
**Q:** # lookup: LC50 of CC(C)C(/C=C/c1ccccc1)n1cc(/C=C/C(=O)NO)nn1 (centres undefined)
**A:** 22.1
